- TARGET_OF_ASSAY: Rap guanine nucleotide exchange factor 4 (Homo sapiens)
- ASSAY_OVERVIEW: Confirmatory qHTS for agonist of cAMP-regulated guanine nucleotide exchange factor 4 (EPAC2) (AID 1645884);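 also: nucleotide exchange releases bodipy-GDP from Rap1 and this lowers its fluorescence; % is scaled to controls: 0 for no effect and ±100 for the full control effect; nearly all actives have a fitted effect of over 65% in size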
- ASSAY_CONDITIONS: EPAC2 GEF activity, Rap1B-BODIPY-GDP fluorescence; series mostly up to 154 µM
Records with an inconclusive call do not appear. Calls of active or inactive are those of the source. Calls follow the shape of the dose curve; as a rule, active = well fitted activation curve with a large enough effect; inconclusive = small, poorly fitted or top-dose-only effect; inactive = no such curve, though single readings can be large or run the other way.
READOUT: activation

Guide cases for activation, answers given:
[[record]]
compound = "O=c1nc(/C=C/c2cccn2-c2ccc([N+](=O)[O-])cc2)cc(C(F)(F)F)[nH]1"
reported_value = "inactive"

[[record]]
compound = "CCOc1cc(/C=C2/SC(=S)N(CC(=O)O)C2=O)ccc1OC(=O)c1cccs1"
reported_value = "inactive"

[[record]]
compound = "COc1cc(/C=C2\\C(=N)N3N=C(S(C)(=O)=O)SC3=NC2=O)ccc1OS(=O)(=O)c1ccc(C)cc1"
reported_value = "inactive"

[[record]]
compound = "Cc1ccc(-c2c3c(=O)n(C)c(=O)n(C)c3c3c(C(F)(F)F)nc4ccccc4n23)cc1"
reported_value = "inactive"

[[record]]
compound = "COc1ccc(C2CC2/C(=N/O)c2ccccn2)cc1 (stereo not given)"
reported_value = "inactive"

[[record]]
compound = "COCC(=O)Oc1c(Sc2ccccc2[N+](=O)[O-])c(C)nn1C(C)(C)C"
reported_value = "inactive"


From here, focus on the item given below.
Task item: Need activation of Cc1ccc(C(=O)c2cn(Cc3cccc(C)c3)c3nc(C)ccc3c2=O)cc1 , thanks.
Reply: inactive

* * *

- Test system: Dd2
- ASSAY_OVERVIEW: qHTS profiling for inhibitors of Plasmodium falciparum proliferation (AID 504749); also: nearly all actives have a fitted effect of over 60% in size
- ASSAY_CONDITIONS: P. falciparum in erythrocytes, SYBR Green DNA, 72 h; series mostly up to 28.7 µM
Inconclusive results are not listed. Calls of active or inactive are those of the source. Calls come from the whole dose curve; as a rule, active = well fitted inhibition curve with a large enough effect; inconclusive = small, poorly fitted or top-dose-only effect; inactive = flat fitted curve, though single readings scatter.
I would appreciate it if you answered using one of these outcomes: true for active, false for inactive

# count of solved cases: 4
[[record]]
molecule = "CC(=O)OC1CC2CCC1(C)C2(C)C (stereo unspecified)"
category = "false"

[[record]]
molecule = "O=C(O)c1cc(O)c2c(c1)[C@H]([C@H]1c3cc(C(=O)O)cc(O)c3C(=O)c3c(O[C@@H]4OC(CO)C(O)C(O)C4O)cccc31)c1cccc(O[C@@H]3OC(CO)C(O)C(O)C3O)c1C2=O (stereo partly specified)"
category = "false"

[[record]]
molecule = "CC(C)CN(C[C@@H](OP(=O)(O)O)[C@H](Cc1ccccc1)NC(=O)O[C@@H]1CCOC1)S(=O)(=O)c1ccc(N)cc1"
category = "false"

[[record]]
molecule = "CO/N=C(/C(=O)N[C@@H]1C(=O)N2C(C(=O)O)=CCS[C@H]12)c1csc(N)n1"
category = "false"


Task item: Could you check what this test reported for CN1CC[C@H](CN2c3ccccc3Sc3ccccc32)C1 ?
Reply: true

Task item: How was NC1=NC(S)C2N=CN=C2N1 (stereo unspecified) classified in this test?
Reply: false

Task item: Record lookup: outcome of this test for Cc1cc(CC(C)CC(C)(C)C)n(O)c(=O)c1 (stereo unspecified) ?
Reply: true

Task item: Test call for this molecule, please: CCC(=O)O[C@@H](OP(=O)(CCCCc1ccccc1)CC(=O)N1C[C@H](C2CCCCC2)C[C@H]1C(=O)O)C(C)C (stereo partly specified)
Reply: false

Task item: Which outcome was entered for the molecule C/C=C\c1ccc(OC)cc1 in this test?
Reply: false

Task item: Test call for this molecule, please: C=C[C@]1(C)C[C@@H](OC(=O)CSCCN(CC)CC)[C@]2(C)C(C)CC[C@]3(CCC(=O)[C@H]32)[C@@H](C)[C@@H]1O (stereo partly specified)
Reply: true

Task item: Field: outcome | Entry: CC(=O)O[C@@]12CO[C@@H]1C[C@H](O)[C@@]1(C)C(=O)[C@H](O)C3=C(C)[C@@H](OC(=O)C(O)[C@@H](NC(=O)OC(C)(C)C)c4ccccc4)C[C@@](O)([C@@H](OC(=O)c4ccccc4)[C@H]21)C3(C)C (stereo partly specified)
Reply: true

* * *

- TARGET_OF_ASSAY: Rap guanine nucleotide exchange factor 3 (Homo sapiens)
- ASSAY_OVERVIEW: Confirmatory qHTS for antagonist of cAMP-regulated guanine nucleotide exchange factor 3 (EPAC1) (AID 1645880); also: nearly all actives have a fitted effect of over 55% in size
- ASSAY_CONDITIONS: EPAC1 Rap1B-BODIPY-GDP exchange, fluorescence
Inconclusive results are not listed. The source made the active and inactive calls. Calls follow the shape of the dose curve; as a rule, active = well fitted inhibition curve with a large enough effect; inconclusive = small, poorly fitted or top-dose-only effect; inactive = no such curve, though single readings can be large or run the other way.
One label from this list, please: 1.0 = active, 0.0 = inactive

[[record]]
compound = "COc1cccc(N(C(=O)c2ccco2)C(C(=O)NC2CCCC2)c2cccnc2)c1 (stereo not given)"
category = 0.0

[[record]]
compound = "COc1ccccc1N1CCN(C(=O)c2ccc(S(=O)(=O)N3CCCC3)cc2)CC1"
category = 0.0

[[record]]
compound = "Cc1ccc(S(=O)(=O)NC2CC(=O)N(c3ccc4c(c3)OCCO4)C2)cc1 (stereo not given)"
category = 0.0

[[record]]
compound = "COc1ccc(/C=C/C(=O)c2ccc(Cl)cc2)c(OC)c1"
category = 0.0

[[record]]
compound = "Cc1cccc(NC(=O)Cn2c(O)c(N=NC(=O)c3ccccc3O)c3ccccc32)c1"
category = 1.0


Task item: Check the results log: what was the call for Cc1nc(-[n+]2nc(-c3ccncc3)nn2-c2ccccc2)sc1C ?
Reply: 1.0

Task item: Check the results log: what was the call for CNc1ccc(-c2nc(-c3ccco3)no2)cc1[N+](=O)[O-] ?
Reply: 0.0

Task item: Which outcome was entered for the compound COc1ccc(O)c(C(=O)c2cc(SCC(=O)O)c3nc4sc5c(c4c(=O)n3c2)CCCC5)c1 in this test?
Reply: 1.0

Task item: What outcome does the record of this test show for C=CCN1C(=O)c2cccc3c(N4CCCCC4)ccc(c23)C1=O ?
Reply: 0.0

Task item: Please indicate how the test categorized COc1ccccc1Oc1ncnc2c1oc1ccccc12 .
Reply: 0.0

* * *

- TARGET_OF_ASSAY: Rap guanine nucleotide exchange factor 4 (Homo sapiens)
- ASSAY_OVERVIEW: Confirmatory qHTS for antagonist of cAMP-regulated guanine nucleotide exchange factor 4 (EPAC2) (AID 1645885); also: nearly all actives have a fitted effect of over 25% in size
- ASSAY_CONDITIONS: EPAC2 Rap1B-BODIPY-GDP exchange fluorescence, biochemical; series mostly up to 12.7 µM
Inconclusive results are not listed. Calls of active or inactive are those of the source. Calls come from the whole dose curve; as a rule, active = well fitted inhibition curve with a large enough effect; inconclusive = small, poorly fitted or top-dose-only effect; inactive = no such curve, though single readings can be large or run the other way.
// classify into active, inactive

[[record]]
molecule = "CC[C@@H]1CC=C[C@H]2[C@H]1C(=O)N(Cc1ccccc1)[C@H]2c1ccc(OC)c(Cl)c1"
category = "inactive"


Task item: Hello, I am checking results. What call was entered for S=c1[nH]nc(-c2cc(-c3ccccc3)n[nH]2)n1/N=C/c1cccc(Cl)c1 ?
Reply: inactive

Task item: GET /call?item= Cc1cc(NS(=O)(=O)c2ccc(Nc3nc(-c4ccc(O)cc4)cs3)cc2)no1 returns the recorded outcome of this test.
Reply: active

Task item: What call does the record list for Cc1ccc(-c2ccc(CN3C(CC(C)C)C(=O)N(Cc4cn(CCC5OCCO5)nn4)CCS3(=O)=O)cc2)cc1 (stereo not given) ?
Reply: inactive

* * *

- TARGET_OF_ASSAY: Rap guanine nucleotide exchange factor 3 (Homo sapiens) (UniProt O95398)
- Sequence (O95398 whole entry, looked up): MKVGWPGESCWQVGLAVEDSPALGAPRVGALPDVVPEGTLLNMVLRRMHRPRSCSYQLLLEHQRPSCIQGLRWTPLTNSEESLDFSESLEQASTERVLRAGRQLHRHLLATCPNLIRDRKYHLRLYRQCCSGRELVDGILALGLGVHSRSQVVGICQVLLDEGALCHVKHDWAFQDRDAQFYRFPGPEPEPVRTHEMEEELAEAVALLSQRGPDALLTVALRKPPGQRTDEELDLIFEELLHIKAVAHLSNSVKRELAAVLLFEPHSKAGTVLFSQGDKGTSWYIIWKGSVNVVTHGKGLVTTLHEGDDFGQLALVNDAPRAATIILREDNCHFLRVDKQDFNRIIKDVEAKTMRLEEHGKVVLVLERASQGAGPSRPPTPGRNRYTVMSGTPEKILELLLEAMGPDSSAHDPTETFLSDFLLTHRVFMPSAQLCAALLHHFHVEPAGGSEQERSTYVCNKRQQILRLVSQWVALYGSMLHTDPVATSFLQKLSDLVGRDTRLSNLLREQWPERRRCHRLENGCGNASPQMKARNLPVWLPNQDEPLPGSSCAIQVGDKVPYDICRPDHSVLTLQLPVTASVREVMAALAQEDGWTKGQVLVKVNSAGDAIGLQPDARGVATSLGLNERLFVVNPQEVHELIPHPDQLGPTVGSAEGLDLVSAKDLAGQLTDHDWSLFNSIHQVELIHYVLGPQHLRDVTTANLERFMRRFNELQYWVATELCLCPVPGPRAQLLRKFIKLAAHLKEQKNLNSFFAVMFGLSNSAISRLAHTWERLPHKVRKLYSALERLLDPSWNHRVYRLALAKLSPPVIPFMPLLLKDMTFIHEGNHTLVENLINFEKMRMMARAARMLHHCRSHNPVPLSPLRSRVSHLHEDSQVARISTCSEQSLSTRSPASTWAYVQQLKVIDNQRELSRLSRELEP
- ASSAY_OVERVIEW: Counterscreen qHTS for agonist of cAMP-regulated guanine nucleotide exchange factor 3 (EPAC1) (AID 1645889); also: % of control where 0% means no effect; nearly all actives have a fitted effect of over 40% in size
- ASSAY_CONDITIONS: EPAC1 Rap1B-BODIPY-GDP exchange, fluorescence; series mostly up to 154 µM
Inconclusive results are not listed. Calls of active or inactive are those of the source. The call rests on the fitted dose curve; in most records, active means well fitted activation curve with a large enough effect; inconclusive means small, poorly fitted or top-dose-only effect, or another doubt; inactive means no such curve, though single readings can be large or run the other way.
READOUT: activation

[[record]]
compound = "Cc1cccc(N2C(=O)C(O)=C(C(=O)c3cccs3)C2c2cccc(Oc3ccccc3)c2)n1 (stereo unspecified)"
reported_value = "inactive"

[[record]]
compound = "CC(=O)Nc1ccc(S(=O)(=O)Nc2nc(-c3ccc(C(C)(C)C)cc3)cs2)cc1"
reported_value = "8.98% [at 30.8 µM] (inactive)"

[[record]]
compound = "COC(=O)c1cc2oc(C)cc2n1Cc1ccc(C)cc1"
reported_value = "inactive"

[[record]]
compound = "O=C(COc1ccccc1[N+](=O)[O-])Nc1cccc(C(=O)Nc2ccccc2C(=O)O)c1"
reported_value = "inactive"

[[record]]
compound = "C/C(=N\\NS(=O)(=O)c1ccc(C(C)(C)C)cc1)c1ccccc1"
reported_value = "25% [at 30.8 µM] (inactive)"

[[record]]
compound = "O=C(NCCc1ccccc1)c1ccc2c(=O)[nH]c3c(C(=O)NCC4CCCO4)sc(=S)n3c2c1 (stereo unspecified)"
reported_value = "inactive"

[[record]]
compound = "COc1ccccc1N(CC(=O)Nc1cc(C)on1)S(=O)(=O)c1ccc(Cl)cc1"
reported_value = "29.1% [at 30.8 µM] (inactive)"

[[record]]
compound = "O=C(Nc1ccncc1)c1cc2ccccc2cc1O"
reported_value = "inactive"

[[record]]
compound = "O=C(Nc1ncccc1O)c1ccc2c(c1)OCCO2"
reported_value = "22.4% [at 30.8 µM] (inactive)"

[[record]]
compound = "O=C(O)CSc1nnc(COc2cccc3ccccc23)n1Cc1ccccc1"
reported_value = "inactive"


Would you be so kind as to report activation for each listed record?
1. CC1(NC(=O)CCc2nc3sc4c(c3c(=O)[nH]2)CCCC4)CCS(=O)(=O)C1 (stereo unspecified)
2. COc1cc2c(c(OC)c1OC)-c1c(cc(OC)c(OC)c1OC)C[C@H](C)[C@H](C)C2
3. O=C(N/N=C/c1ccoc1)c1cc(O)cc(O)c1
4. CC(C)CCn1c(Oc2ccc(Cl)cc2)nc2c1c(=O)n(C)c(=O)n2C

Reply:
8.58% [at 30.8 µM] (inactive)
23.6% [at 30.8 µM] (inactive)
inactive
inactive

For each of the compounds below, note its activation.
1. COc1ccc(-c2nc(CCNS(=O)(=O)c3ccc4c(c3)OCCO4)cs2)cc1
2. Cc1cc(N2CCN(c3cccc(C(F)(F)F)c3)CC2)n2nc(-c3ccccc3C)nc2n1
3. Cc1ccc(N(Cc2ccc([N+](=O)[O-])cc2)C(=O)c2ccco2)cc1C
4. C=CCN(CC=C)Cc1cc(=O)oc2cc(OC)c(Cl)cc12
5. Cn1c(SCC(=O)Nc2ccc(C(=O)O)cc2)nc2scc(-c3ccccc3Cl)c2c1=O
6. CCOc1ccccc1OCC(=O)Nc1cc(S(=O)(=O)N2CCCCC2)ccc1N1CCN(CC)CC1
7. CC(C)Cn1c(N)c(C(=O)COC(=O)c2cc(-c3ccco3)nc3ccccc23)c(=O)n(C)c1=O

Reply:
inactive
inactive
inactive
20.9% [at 30.8 µM] (inactive)
inactive
inactive
inactive

Reference source: PubChem BioAssay (NCATS)
